Biological target: human TLR9 (Homo sapiens, UniProt Q9NR96)
Sequence (Q9NR96 26-1032): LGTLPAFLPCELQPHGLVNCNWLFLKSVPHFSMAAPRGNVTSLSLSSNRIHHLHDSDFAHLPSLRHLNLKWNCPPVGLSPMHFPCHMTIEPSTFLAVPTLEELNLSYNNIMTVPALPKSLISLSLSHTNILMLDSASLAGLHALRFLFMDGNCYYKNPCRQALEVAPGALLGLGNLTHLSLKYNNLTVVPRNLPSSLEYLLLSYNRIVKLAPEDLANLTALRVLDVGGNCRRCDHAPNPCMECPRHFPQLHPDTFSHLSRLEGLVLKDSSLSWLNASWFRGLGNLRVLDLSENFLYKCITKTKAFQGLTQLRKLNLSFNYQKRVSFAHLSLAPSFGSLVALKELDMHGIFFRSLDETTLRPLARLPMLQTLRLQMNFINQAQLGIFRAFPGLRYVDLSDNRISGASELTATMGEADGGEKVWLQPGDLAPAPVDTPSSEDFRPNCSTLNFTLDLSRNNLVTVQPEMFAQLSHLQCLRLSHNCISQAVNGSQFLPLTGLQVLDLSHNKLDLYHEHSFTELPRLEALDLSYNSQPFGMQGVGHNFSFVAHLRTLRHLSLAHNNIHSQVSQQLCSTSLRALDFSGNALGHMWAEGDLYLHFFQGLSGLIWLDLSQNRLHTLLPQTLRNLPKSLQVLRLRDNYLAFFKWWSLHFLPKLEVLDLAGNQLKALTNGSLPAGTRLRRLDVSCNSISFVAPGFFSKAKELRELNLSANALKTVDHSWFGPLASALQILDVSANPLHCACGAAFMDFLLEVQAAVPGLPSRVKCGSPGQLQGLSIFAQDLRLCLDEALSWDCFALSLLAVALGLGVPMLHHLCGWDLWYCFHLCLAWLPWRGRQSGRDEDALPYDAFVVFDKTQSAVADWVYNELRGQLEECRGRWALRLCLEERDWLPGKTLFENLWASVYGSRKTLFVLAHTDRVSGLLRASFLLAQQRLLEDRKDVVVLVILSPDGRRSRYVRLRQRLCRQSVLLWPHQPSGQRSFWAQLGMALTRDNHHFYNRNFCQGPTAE
Assay: TLR9 inhibition reporter assay (HEK-Blue SEAP reporter)
Conditions: HEK-Blue cells overexpressing human TLR9; ODN2006 5 nM; 22 hour incubation
pIC50: −log10 of the molar value.
ATTRIBUTE MEASURED: pIC50

Worked examples follow.
COc1ccc(-c2[nH]c3ccc(N4CCC(C5CCN(CCC(F)(F)F)CC5)CC4)cc3c2C(C)C)cc1OC ... 5.18
CCc1c(-c2ccc(OC)c(OC)c2)[nH]c2ccc(N3CCCN(C4CCN(C)CC4)CC3)cc12 ... 5.96
CNCCNC1CCN(c2ccc3[nH]c(-c4ccc(OC)c(OC)c4)c(C(C)C)c3c2)CC1 ... 5.86
Cc1c(-c2ccnc3[nH]ccc23)[nH]c2ccc(N3CCN(C4CCN(CC(C)C)CC4)CC3)cc12 ... 6.70
COc1ccc(-c2[nH]c3ccc(N4CCC(C)(N5CCOCC5)CC4)cc3c2C(C)C)cc1OC ... 5.30

I: COc1ccc(-c2[nH]c3ccc(N4CCC(N5CCN(C(C)(C)C)CC5)CC4)cc3c2C(C)C)cc1OC
II: COc1ccc(-c2[nH]c3ccc(NC4CCC(N5CCN(c6ccncc6)CC5)CC4)cc3c2C(C)C)cc1OC (stereo not drawn) [Example 59]
III: CNCCN1CCN(c2ccc3[nH]c(-c4ccc(OC)c(OC)c4)c(C(C)C)c3c2)CC1
// smallest pIC50 at index 0, largest at the end List labels; respect the requested ordering. III, I, II
(III: 5.20, I: 6.09, II: 6.66)

I: COCCN1CCN(C2CCN(c3ccc4[nH]c(-c5ccc(OC)c(OC)c5)c(C(C)C)c4c3)CC2)CC1
II: CCc1c(-c2ccnc3c2ccn3C)[nH]c2ccc(N3CCN(C4CCN(C(C)C)CC4)CC3)cc12
// which entry reports the smaller pIC50, I or II ? // output: label of the selected item I

I: COc1ccc(-c2[nH]c3ccc(N4CCC(N5CCN(CCN6CCCC6)CC5)CC4)cc3c2C(C)C)cc1OC
II: COc1ccc(-c2[nH]c3ccc(NC4CCC(N5CCN(C6CCCC6)CC5)CC4)cc3c2C(C)C)cc1OC (stereo not drawn) [Example 57]
# query: argmin of pIC50 over I and II The response must carry the label of the picked entry. I
(I: 6.00, II: 6.34)
